molecular target: hERG channel (Homo sapiens); test: Inhibition of the hERG channel; type: biochemical; conditions: studies conducted by Wuxi AppTec
Sequence (Q12809 whole entry): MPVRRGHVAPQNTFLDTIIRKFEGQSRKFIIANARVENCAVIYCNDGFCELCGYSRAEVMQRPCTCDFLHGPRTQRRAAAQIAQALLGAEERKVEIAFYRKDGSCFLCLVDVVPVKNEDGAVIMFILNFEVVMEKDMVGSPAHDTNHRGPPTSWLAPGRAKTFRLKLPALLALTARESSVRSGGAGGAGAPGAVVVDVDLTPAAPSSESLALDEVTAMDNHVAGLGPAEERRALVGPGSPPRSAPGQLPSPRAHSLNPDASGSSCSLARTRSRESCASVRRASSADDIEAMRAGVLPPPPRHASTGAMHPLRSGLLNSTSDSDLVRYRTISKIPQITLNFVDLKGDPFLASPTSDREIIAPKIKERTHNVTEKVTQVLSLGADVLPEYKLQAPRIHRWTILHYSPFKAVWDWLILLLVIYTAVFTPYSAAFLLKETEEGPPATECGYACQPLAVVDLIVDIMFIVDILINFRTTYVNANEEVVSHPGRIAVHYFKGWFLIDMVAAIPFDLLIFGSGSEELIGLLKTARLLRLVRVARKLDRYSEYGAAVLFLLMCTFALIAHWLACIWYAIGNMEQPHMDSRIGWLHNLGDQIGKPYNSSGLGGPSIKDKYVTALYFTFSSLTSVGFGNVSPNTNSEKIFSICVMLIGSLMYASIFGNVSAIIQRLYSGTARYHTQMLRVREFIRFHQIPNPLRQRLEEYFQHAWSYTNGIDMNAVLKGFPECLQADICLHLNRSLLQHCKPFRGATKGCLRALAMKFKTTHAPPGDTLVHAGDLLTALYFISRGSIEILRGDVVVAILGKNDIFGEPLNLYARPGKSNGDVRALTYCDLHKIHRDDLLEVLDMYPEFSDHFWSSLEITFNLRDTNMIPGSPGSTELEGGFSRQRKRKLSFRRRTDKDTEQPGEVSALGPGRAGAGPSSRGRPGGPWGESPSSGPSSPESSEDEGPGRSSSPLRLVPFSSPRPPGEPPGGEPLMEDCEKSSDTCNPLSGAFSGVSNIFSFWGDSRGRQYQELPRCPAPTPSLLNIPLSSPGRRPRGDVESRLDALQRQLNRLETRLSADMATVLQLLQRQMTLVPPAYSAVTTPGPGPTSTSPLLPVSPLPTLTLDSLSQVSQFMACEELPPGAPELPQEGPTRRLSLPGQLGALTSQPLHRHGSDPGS
property label: pIC50
Answers are plain numbers, as −log10 of the molar value.

Below, each entry is followed by its recorded pIC50 result.
# structure notation, pIC50
records = [
    ("COc1cc([C@H](c2cc3cc(Br)ccc3nc2OC)[C@@](O)(CCN(C)C)c2cccc(F)c2)cnc1OC", 5.72),
    ("COc1nc2ccc(Br)cc2cc1[C@@H](c1ccnc(OC)c1OC)[C@@](O)(CCN(C)C)c1cccc(C)c1", 6.28),
]

Dear colleague, I am looking for the recorded pIC50 of the following molecule: COc1nc2ccc(Br)cc2cc1[C@@H](c1cc(C)c(C)s1)[C@@](O)(CCN(C)C)c1cccc(F)c1
6.06
